System: MARIMO
Test: cell viability relative to vehicle control; higher = less cytotoxic;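 note: after 48 h exposure read by CellTiter-Glo luminescence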
Conditions: 10 µM; SRSF2 genotype: SRSF2 wt/wt
Counter-ions that a name gives are not always drawn.
ENDPOINT NAME: cell viability

These recorded examples may help you get a feel for the data.
| COMPOUND | cell viability |
| --- | --- |
| Cc1cc(O)c(C(=O)N[C@@H](C(=O)N[C@@H]2C(=O)N3C(C(=O)O)=C(CSc4nnnn4C)CS[C@H]23)c2ccc(O)cc2)cn1 [Cefpiramide sodium] | 115% |
| O=C(CCCN1CCC(O)(c2ccc(Cl)cc2)CC1)c1ccc(F)cc1 | 85.3% |
| COc1cc2c(N3CCN(C(=O)Nc4ccc(OC(C)C)cc4)CC3)ncnc2cc1OCCCN1CCCCC1 | 100% |
| CO/N=C(/C(=O)N[C@@H]1C(=O)N2C(C(=O)OCOC(=O)C(C)(C)C)=C(C)CS[C@H]12)c1csc(N)n1 [Cefetamet pivoxil hydrochloride] | 104% |
| CC(=O)Nc1cccc(-n2c(=O)n(C3CC3)c(=O)c3c(Nc4ccc(I)cc4F)n(C)c(=O)c(C)c32)c1 | 38.5% |

Q) Consider the compound NC(=O)N/N=C/c1ccc([N+](=O)[O-])o1 and give its measured cell viability.
A) 100%

Q) Another compound: CN(NC(=O)CC(=O)NN(C)C(=S)c1ccccc1)C(=S)c1ccccc1 [Elesclomol (STA-4783)]
A) 21.5%

Q) Another compound: CC(C)(C)NC[C@H](O)COc1nsnc1N1CCOCC1 [Timolol Maleate]
A) 106%

Q) Another compound: C[C@@H](N)[C@H]1CC[C@H](C(=O)Nc2ccncc2)CC1
A) 94.6%

Q) Another compound: Cc1cc(Cn2cnc3c2CC(C(=O)O)N(C(=O)C(c2ccccc2)c2ccccc2)C3)ccc1N(C)C (stereo unspecified)
A) 101%

Q) Another compound: CC(=O)O[C@H]1C[C@@]2(C)[C@@H](C[C@@H](O)[C@H]3[C@@]4(C)CC[C@@H](O)[C@@H](C)[C@@H]4CC[C@@]32C)/C1=C(\CCC=C(C)C)C(=O)O [Fusidate Sodium]
A) 104%

Q) Another compound: CC1(C)CC[C@]2(C(=O)O)CC[C@]3(C)C(=CC[C@@H]4[C@@]5(C)CC[C@H](O)[C@@](C)(CO)[C@@H]5CC[C@]43C)[C@@H]2C1
A) 112%

====

System: MOLM14
Assay: cell viability relative to vehicle control; higher = less cytotoxic
Conditions: 10 µM; SRSF2 genotype: SRSF2 P95H/wt
Entries and their cell viability
Write down the numeric answer in % and omit the unit.

| MOLECULE | UNIT OF MEASUREMENT | cell viability |
| --- | --- | --- |
| C=C(c1ccc(C(=O)O)cc1)c1cc2c(cc1C)C(C)(C)CCC2(C)C [Bexarotene] | % | 89.4 |
| CNC(=O)c1ccc2cc([C@@]3(O)CCn4cncc43)ccc2c1 [TAK-700 (Orteronel)] | % | 101 |
| CCC(C)(Oc1ccc(C2(c3ccc(OC(C)(CC)C(=O)O)cc3)CCCCC2)cc1)C(=O)O (configuration not stated) [Clinofibrate] | % | 93.8 |
| O=C(NC(NC(=S)Nc1ccc(F)c([N+](=O)[O-])c1)C(Cl)(Cl)Cl)C(c1ccccc1)c1ccccc1 (configuration not stated) | % | 1.5 |

Q) Hi! What's the reported cell viability for O=C(CCCCCCNC(=O)c1cnc(N(c2ccccc2)c2ccccc2Cl)nc1)NO [Citarinostat (ACY-241)] on MOLM14?
A) 2.1

Q) Another molecule: O=C1OC(COc2ccccc2[N+](=O)[O-])CC1Cc1ccccc1 (configuration not stated)
A) 108
